B1: library; a variant is named by its letters at N, in order (parent)
chain: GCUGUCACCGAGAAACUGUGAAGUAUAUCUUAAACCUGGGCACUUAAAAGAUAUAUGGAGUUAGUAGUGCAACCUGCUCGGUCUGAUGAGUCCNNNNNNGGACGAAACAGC

Variants of: B1
assayExplanation: normalized RNA/DNA level without ligand (relative to sTRSVctl = 100) (log10 (% of sTRSVctl)); HEK293T; ligand: cyclic di-GMP (c-di-GMP-II aptamer); higher = less ribozyme self-cleavage, higher mRNA level
testSettings: reporter: mCherry (pCS4076), ligand present: no
observable: normalized RNA/DNA level without ligand (log10)

[[record]]
mutantdesignation = "CGUUCA"
recordedvalue = 1.39

[[record]]
mutantdesignation = "UUAGAA"
recordedvalue = 1.56

[[record]]
mutantdesignation = "CAUCUU"
recordedvalue = 1.56

[[record]]
mutantdesignation = "GUCUAU"
recordedvalue = 1.64

[[record]]
mutantdesignation = "UUCAAA"
recordedvalue = 1.61

[[record]]
mutantdesignation = "CCACUG"
recordedvalue = 1.39

[[record]]
mutantdesignation = "AUUCGA"
recordedvalue = 1.58

[[record]]
mutantdesignation = "UUGCCC"
recordedvalue = 1.83

[[record]]
mutantdesignation = "UCCGGG"
recordedvalue = 1.85

[[record]]
mutantdesignation = "GGUUGA"
recordedvalue = 1.57

[[record]]
mutantdesignation = "UACAAC"
recordedvalue = 1.68

[[record]]
mutantdesignation = "CGGGAU"
recordedvalue = 1.49

[[record]]
mutantdesignation = "AGUUAU"
recordedvalue = 1.67

[[record]]
mutantdesignation = "CCGAAC"
recordedvalue = 1.56

[[record]]
mutantdesignation = "CGAUUA"
recordedvalue = 1.28

[[record]]
mutantdesignation = "CAAGUU"
recordedvalue = 1.71

[[record]]
mutantdesignation = "CGACAU"
recordedvalue = 1.43

[[record]]
mutantdesignation = "AGGCGC"
recordedvalue = 1.74

[[record]]
mutantdesignation = "AUGGCA"
recordedvalue = 1.61

[[record]]
mutantdesignation = "AUUGAC"
recordedvalue = 1.66

[[record]]
mutantdesignation = "CUGACU"
recordedvalue = 1.52

[[record]]
mutantdesignation = "CGUCGU"
recordedvalue = 1.78


These entries and their values trace back to the supplement of paper PMC6757056.
